Biological target: UniProt:Q5NUL3
Sequence (Q5NUL3 whole entry): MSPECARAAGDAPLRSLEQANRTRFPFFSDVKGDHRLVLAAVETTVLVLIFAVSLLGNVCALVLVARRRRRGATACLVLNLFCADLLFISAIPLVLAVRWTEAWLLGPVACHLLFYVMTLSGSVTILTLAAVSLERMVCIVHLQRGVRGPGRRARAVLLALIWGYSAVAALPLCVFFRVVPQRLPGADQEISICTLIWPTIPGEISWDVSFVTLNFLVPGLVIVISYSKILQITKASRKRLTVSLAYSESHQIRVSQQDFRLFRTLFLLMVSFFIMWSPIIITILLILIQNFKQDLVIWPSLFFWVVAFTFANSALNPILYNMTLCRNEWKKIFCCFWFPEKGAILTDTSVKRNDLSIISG
Sequence (P32121 whole entry partner): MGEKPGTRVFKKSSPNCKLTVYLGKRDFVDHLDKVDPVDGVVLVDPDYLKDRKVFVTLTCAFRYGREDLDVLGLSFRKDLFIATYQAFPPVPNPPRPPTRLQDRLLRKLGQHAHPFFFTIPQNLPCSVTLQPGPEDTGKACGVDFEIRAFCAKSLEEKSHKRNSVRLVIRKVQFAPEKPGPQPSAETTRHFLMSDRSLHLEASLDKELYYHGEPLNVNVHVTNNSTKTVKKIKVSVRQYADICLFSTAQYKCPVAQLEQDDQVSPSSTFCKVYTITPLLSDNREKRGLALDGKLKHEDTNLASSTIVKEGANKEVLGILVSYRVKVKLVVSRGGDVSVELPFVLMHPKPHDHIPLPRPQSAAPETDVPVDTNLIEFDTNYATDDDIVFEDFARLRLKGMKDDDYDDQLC
Assay: Human GPR120 DiscoveRx PathHunter Beta-Arrestin assay, Procedure β-arrestin B
Procedure: Human GPR120 DiscoveRx PathHunter® Beta-Arrestin Assay Assay Principle: […] The plates were read on an EnVision instrument, using Protocol name: Luminescence, Plate type: 384 Costar, Measurement height: 3 mm, Measurement time: 1 s, Aperture: 384 Plate aperture. The % Activity relative to the positive control was calculated using the following equation: […]
pEC50: −log10 of the molar value.
parameter-measured: pEC50

• Cc1c(CCC(=O)O)ccc(OCC2=C(c3ccc(C(F)(F)F)cc3)CCC2)c1C [Compound 75] = 6.77
• Cc1c(CCC(=O)O)ccc(OCC2=C(c3ccc(F)cc3)CCCC2)c1C [Compound 480] = 6.41
• O=C(O)CCc1c(F)c(F)c(OCC2=C(c3ccc(Cl)cc3)CCCC2)c(F)c1F [Compound 479] = 6.17
• Cc1ccc(C2=C(COc3ccc(CCC(=O)O)c(C)c3C)CCC2)cc1F [Compound 80] = 6.86
• CC(Cc1ccc(OCC2=C(c3ccc(F)cc3)CCC2)c(F)c1)C(=O)O (centres unmarked) [Compound 458] = 6.43
• Cc1c(CCC(=O)O)ccc(OCC2=C(c3ccc(Br)cc3)CCCC2)c1C [Compound 481] = 6.32
• COc1cccc(C2=C(COc3ccc(CCC(=O)O)c(C)c3C)CCC2)c1 [Compound 141] = 5.91
• Cc1c(CCC(=O)O)ccc(OCC2=C(c3ccc(N(C)C)cc3)CCCC2)c1C [Compound 512] = 6.10
